assay: Primary qHTS for delayed death inhibitors of the malarial parasite plastid, 96 hour incubation; settings: P. falciparum luciferase reporter growth; series mostly up to 28.7 µM
Screen size: about 320,000 compounds; about 22,000 (6.9%) were called active. Inconclusive results (about 27%) are left out. The call rests on the fitted dose curve; in most records, active means well fitted inhibition curve with a large enough effect; inconclusive means small, poorly fitted or top-dose-only effect, or another doubt; inactive means no such curve, though single readings can be large or run the other way. This excerpt belongs to a sample that is enriched for actives.
Choose one outcome from this list and give only that: active, inactive

Consider the following illustrative entries.
> print(dat)
                            chemical.string     label
1  CCn1cc(C(=O)N2CCN(Cc3ccc4c(c3)OCO4)CC2)c2cc(OC)c(OC)cc2c1=O  inactive
2  O=C(C1=C[C@H](c2coc3ccccc3c2=O)C[C@H](OCc2ccc(CO)cc2)O1)N1CCOCC1  inactive
3              C=CCNC(=S)NNC(=O)c1ccc(Br)o1  inactive
4  O=C(O)C1=C[C@H](c2cccs2)C[C@H](OCCCCO)O1  inactive

For "CC(=O)n1cc([C@@H]2C=C(C(=O)N3CCN(Cc4ccc5c(c4)OCO5)CC3)O[C@H](OCc3ccc(CO)cc3)C2)c2ccccc21" , what call appears in the results of this test?
active

For "Cc1ccc(/C=N/NC(=O)CN2CCN(Cc3ccccc3)CC2)s1" , what call appears in the results of this test?
inactive

For "O=C(C1=C[C@H](c2ccc(C(F)(F)F)cc2)C[C@H](OCc2ccc(CO)cc2)O1)N1CCN(Cc2ccccc2)CC1" , what call appears in the results of this test?
active

For "C#Cc1ccc([C@@H]2C=C(C(=O)O)O[C@H](OCCCCO)C2)cc1" , what call appears in the results of this test?
inactive

For "O=C(NCc1ccccc1)C1=C[C@@H](c2ccc(C(F)(F)F)cc2)C[C@@H](OCc2ccc(CO)cc2)O1" , what call appears in the results of this test?
active

----------
assay: Primary qHTS for delayed death inhibitors of the malarial parasite plastid, 96 hour incubation; conditions: P. falciparum luciferase reporter growth; series mostly up to 28.7 µM
The whole screen tested about 320,000 compounds, of which about 22,000 (6.9%) were called active. Roughly 27% stayed inconclusive and do not appear here. The call rests on the fitted dose curve; in most records, active means well fitted inhibition curve with a large enough effect; inconclusive means small, poorly fitted or top-dose-only effect, or another doubt; inactive means no such curve, though single readings can be large or run the other way. What follows is part of a selection rich in actives, with near analogues and random picks from the rest.
Choose one outcome from this list and give only that: active, inactive

Consider the following illustrative entries.
> print(dat)
                                   molecule     label
1  COc1ccc(CCNS(=O)(=O)c2cccc3cccnc23)cc1OC  inactive
2  CC(=O)N1c2ccc(S(=O)(=O)N3CCCC(C(=O)Nc4cccc(F)c4)C3)cc2CC1C (centres undefined)    active
3  CCCn1c(C(Cc2ccccc2)NC(=O)COC)nc2ccccc21 (centres undefined)  inactive
4      O=C(Cc1cccs1)Nc1ccc([N+](=O)[O-])cc1  inactive
5   COc1ccc(C(=O)NNS(=O)(=O)c2ccc(C)cc2)cc1  inactive
6          COc1ccc(Cl)cc1C(=O)NCc1cn(C)nc1C  inactive
7  CCC(NC(=O)C1CCCC1)c1ccc(C)cc1 (centres undefined)  inactive
8  O=C(Nc1ccccc1N1CCN(C(=O)c2ccccc2)CC1)c1ccco1  inactive

For O=C(Cn1nc(Cc2cccnc2)c2ccccc2c1=O)NCC1CCCO1 (centres undefined) , what call appears in the results of this test?
active

For "CCN(CC)c1ccc(/C=N/NC(=O)CNC(=O)c2cccnc2)cc1" , what call appears in the results of this test?
inactive

For "CCOc1ccccc1N(CC(=O)Nc1ccccc1C(=O)OC)S(C)(=O)=O" , what call appears in the results of this test?
inactive

For "COc1ccc(Cl)cc1C(=O)NNC(=S)NC1CCCC1" , what call appears in the results of this test?
inactive

For "O=C(CNS(=O)(=O)c1ccc2ccccc2c1)Nc1ccc(F)c(F)c1F" , what call appears in the results of this test?
inactive

For COc1ccc(S(=O)(=O)N2CCN(C(=O)N(C)C)C2C)cc1 (centres undefined) , what call appears in the results of this test?
inactive

For "CCC(=O)c1ccc(OC(=O)/C=C/c2cc(OC)c(OC)c(OC)c2)cc1" , what call appears in the results of this test?
inactive
